Sourced from patent US20250154277A1

Target: T1, human 5T4-His protein (human, UniProt Q13641 32-355)
T1 construct: also called recombinant 5T4 protein (human 5T4-his tag); human 5T4 protein; not shown: His tag
T1 sequence (looked up): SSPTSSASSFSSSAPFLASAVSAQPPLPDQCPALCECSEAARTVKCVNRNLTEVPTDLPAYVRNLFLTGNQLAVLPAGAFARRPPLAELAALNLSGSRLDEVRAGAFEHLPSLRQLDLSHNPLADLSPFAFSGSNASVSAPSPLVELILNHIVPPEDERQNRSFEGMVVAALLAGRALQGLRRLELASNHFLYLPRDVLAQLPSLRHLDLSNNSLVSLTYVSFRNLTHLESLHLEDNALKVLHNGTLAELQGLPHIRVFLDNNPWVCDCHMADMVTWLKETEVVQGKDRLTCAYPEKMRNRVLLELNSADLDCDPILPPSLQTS
Test: SPR Biacore, Protein A capture
attribute measured: koff (s⁻¹)
One number for each entry, in s⁻¹.

Supply recorded koff for 425G1 chimeric antibody (antibody, V domains shown, chimeric mAb) VH: EVQLQQSGAELVKPGASVKLSCTASGFNIKDTYMHWVKQRPEQGLEWIGRIDPANGHTIFASKFQGKATITADTSSNTAYMQLSSLTSGDTAVYYCGLFTMVVVPWYFDVWGTGTTVTVSS VL: DIVMTQSHKFMSTSVGDRVSITCKASQDVSTAVAWYQQKPGQSPKLLIYWASTRHTGVPDRFTGSGSGTDYTLTISSVQAEDLALYYCQQHYSSPLTFGAGTKLELK here.
0.000215
